The reader will find reported IC50 values listed item by item below.
# tested_target: c-Met/cFms chimeric receptor in c-Met/cFms/NIH3T3 cells (Homo sapiens)
# Construct: The transmembrane/cytoplasmic domain fragment of c-Met (nucleotides 933 to 1390); the other entry of the earlier key: CSF1R (P07333, Macrophage colony-stimulating factor 1 receptor)
# Sequence (P08581 with tags, fused parts or gaps): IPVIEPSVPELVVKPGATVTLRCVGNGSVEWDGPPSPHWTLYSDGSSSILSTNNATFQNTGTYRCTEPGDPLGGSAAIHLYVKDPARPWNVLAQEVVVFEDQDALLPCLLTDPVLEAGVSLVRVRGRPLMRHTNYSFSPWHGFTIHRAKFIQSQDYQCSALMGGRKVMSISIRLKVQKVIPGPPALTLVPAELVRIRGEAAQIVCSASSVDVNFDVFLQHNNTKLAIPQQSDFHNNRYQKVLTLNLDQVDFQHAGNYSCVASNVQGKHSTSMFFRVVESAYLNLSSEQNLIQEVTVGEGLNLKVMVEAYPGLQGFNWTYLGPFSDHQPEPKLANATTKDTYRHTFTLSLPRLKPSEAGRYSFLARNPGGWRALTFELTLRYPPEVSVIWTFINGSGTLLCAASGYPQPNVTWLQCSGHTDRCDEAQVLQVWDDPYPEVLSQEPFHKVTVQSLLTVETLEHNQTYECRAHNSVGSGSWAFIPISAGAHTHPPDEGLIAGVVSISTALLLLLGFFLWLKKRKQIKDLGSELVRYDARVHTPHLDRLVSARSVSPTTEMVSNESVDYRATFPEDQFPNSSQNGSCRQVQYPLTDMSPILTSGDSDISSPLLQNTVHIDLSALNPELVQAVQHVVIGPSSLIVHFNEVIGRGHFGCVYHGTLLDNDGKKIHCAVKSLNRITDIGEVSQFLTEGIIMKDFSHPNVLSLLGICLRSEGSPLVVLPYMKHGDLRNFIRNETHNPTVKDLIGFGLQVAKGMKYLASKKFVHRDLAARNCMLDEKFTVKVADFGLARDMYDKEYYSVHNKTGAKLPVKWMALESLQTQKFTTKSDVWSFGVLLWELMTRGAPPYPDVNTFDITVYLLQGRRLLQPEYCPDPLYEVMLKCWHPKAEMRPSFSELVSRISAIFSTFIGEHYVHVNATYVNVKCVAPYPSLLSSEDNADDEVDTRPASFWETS
# experiment: Cell-based assay for c-Met autophosphorylation (ELISA)
# condition_set: compounds 1 h at 37° C., M-CSF (600 ng/ml) stimulation 10 min

COc1ccccc1CNC(=O)c1cc2c(Oc3ccc(NC(=O)C4(C(=O)Nc5ccc(F)cc5)CC4)cc3)ccnc2[nH]1 :: 1 to 3.16 µM

// field: IC50; key: `O=C(NCCN1CCOCC1)c1cc2c(Nc3ccc(NC(=O)C4(C(=O)Nc5ccc(F)cc5)CC4)cc3)ccnc2[nH]1` ; value = 1 to 3.16 µM

get_value(item= `CCOC(=O)c1cc2c(Nc3ccc(NC(=O)C4(C(=O)Nc5ccc(F)cc5)CC4)cc3)ccnc2[nH]1` , readout=IC50) returns 1 to 3.16 µM

Lab book: IC50 of `O=C(NCCc1c[nH]cn1)c1cc2c(Nc3ccc(NC(=O)C4(C(=O)Nc5ccc(F)cc5)CC4)cc3)ccnc2[nH]1` noted as 3.16 to 31.6 µM
